assay: AUC (0 to 8 hrs) in mouse at 1 mg/kg, po administered via cassette dose by LC-MS/MS analysis; type: ADME, organism-based; parameters: time < 8 hr, dose 1 mg/kg, route oral; details: in vivo
experimental-endpoint: AUC(0-t) at 8 h (ng·h/mL)

Some solved entries appear below for comparison.
COc1ccc2c(c1)CCN(C(=O)CCCC(N)=O)[C@H]2C(=O)Nc1cc(F)c([Si](C)(C)C)c(F)c1 | 92
COc1ccc2c(c1)CCN(C(=O)c1cc(O)no1)[C@H]2C(=O)Nc1cc(F)c([Si](C)(C)C)c(F)c1 | 200
COc1ccc2c(c1)CCN(C(=O)CC(C)(O)CC(=O)O)[C@H]2C(=O)Nc1cc(F)c([Si](C)(C)C)c(F)c1 (some centres not stated) | 159
COc1ccc2c(c1)CCN(C(=O)CC(C)CC(=O)O)[C@H]2C(=O)Nc1cc(F)c([Si](C)(C)C)c(F)c1 (some centres not stated) | 2500
COc1ccc2c(c1)CCN(C(=O)/C=C/C(=O)O)[C@H]2C(=O)Nc1cc(F)c([Si](C)(C)C)c(F)c1 | 619

(a) COc1ccc2c(c1)OCCN(C(=O)c1cc(O)no1)[C@H]2C(=O)Nc1cc(F)c([Si](C)(C)C)c(F)c1
(b) COc1ccc2c(c1)CCN(C(=O)CCCCC(=O)O)[C@H]2C(=O)Nc1cc(F)c([Si](C)(C)C)c(F)c1
Could you please tell me which of these two has the higher AUC(0-t) at 8 h: a or b ? When you have decided, please share the label of that item.
b
(b: 1030 ng·h/mL, a: 29.5 ng·h/mL)

(A) COc1ccc2c(c1)CCN(C(=O)CC1SC(=O)NC1=O)[C@H]2C(=O)Nc1cc(F)c([Si](C)(C)C)c(F)c1 (some centres not stated)
(B) COc1ccc2c(c1)CCN(C(=O)CC(C)(C)CC(=O)O)[C@H]2C(=O)Nc1cc(F)c([Si](C)(C)C)c(F)c1
Hi team, can someone confirm which has the larger AUC(0-t) at 8 h: A or B ? Thanks. State the label of the item chosen.
B

(P) COc1ccc([C@H](C(=O)Nc2cc(F)c([Si](C)(C)C)c(F)c2)N(C)C(=O)CCC(=O)O)cc1
(Q) COc1ccc2c(c1)CCN(C(=O)CCCC(=O)O)[C@H]2C(=O)Nc1cc(F)c([Si](C)(C)C)c(F)c1
Which is greater in AUC(0-t) at 8 h, the first item P or the second item Q ? Which one? Tell me its label.
Q
(Q: 6890 ng·h/mL, P: 162 ng·h/mL)

Reference source: ChEMBL document CHEMBL4177746
